Taken from paper doi:10.1101/2025.08.20.671340v1.

target.under.test: hAChE (human acetylcholinesterase) (Homo sapiens)
Sequence (P22303 32-614): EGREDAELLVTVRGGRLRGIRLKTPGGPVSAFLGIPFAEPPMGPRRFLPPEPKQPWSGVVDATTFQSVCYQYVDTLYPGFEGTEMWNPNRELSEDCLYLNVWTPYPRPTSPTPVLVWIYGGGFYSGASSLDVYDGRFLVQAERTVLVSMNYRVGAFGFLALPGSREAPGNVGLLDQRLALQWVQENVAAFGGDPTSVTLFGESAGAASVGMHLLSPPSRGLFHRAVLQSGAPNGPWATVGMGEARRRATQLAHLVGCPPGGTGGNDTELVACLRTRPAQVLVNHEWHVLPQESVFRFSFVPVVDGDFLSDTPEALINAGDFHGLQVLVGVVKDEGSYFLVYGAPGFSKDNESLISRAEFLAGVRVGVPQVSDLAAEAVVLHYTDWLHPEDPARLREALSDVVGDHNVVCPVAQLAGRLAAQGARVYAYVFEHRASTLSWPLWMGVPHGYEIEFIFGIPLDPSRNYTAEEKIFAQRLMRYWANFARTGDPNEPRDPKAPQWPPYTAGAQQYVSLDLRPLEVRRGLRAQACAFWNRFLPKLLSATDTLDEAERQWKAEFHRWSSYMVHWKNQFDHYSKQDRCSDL
protocol.notes: enzyme inhibition assay
Type: biochemical
measure.name: IC50 (µM)
Unit µM implied. Number only.

Please review the entries below; each comes with its answer.
CN(CCC1CCCCCC1)Cc1c[nH]c2c(N(C)C(=O)On3ccnc3)cccc12	24.2
CN(CCC1CCCCCC1)Cc1c[nH]c2c(N(C)C(=O)Oc3c(F)c(F)c(F)c(F)c3F)cccc12	0.788

For CN(CCC1CCCCCC1)Cc1c[nH]c2c(SC(=O)N(C)C)cccc12 the compound record lists IC50 as 11.1

Entry CN(CCC1CCCCCC1)Cc1c[nH]c2c(N(C)C(=O)n3ccnc3)cccc12 ; IC50 = 47.3

Recorded result, CN(CCC1CCCCCC1)Cc1c[nH]c2c([Se]C(=O)N(C)C)cccc12 , IC50: 9.75

get_value(item= CN(CCC1CCCCCC1)Cc1c[nH]c2c([Te]C(=O)N(C)C)cccc12 , readout=IC50) returns 13.2

###

target.under.test: UniProt:P22303
protocol.notes: enzyme inhibition assay
Format: biochemical
Param label: returns 1 when IC50 < 20 µM, returns -1 otherwise, including exact equality.

Sample answers from the record:
CC[Se]C(=O)N(C)c1cccc2c(CN(C)CCC3CCCCCC3)c[nH]c12	-1
CN(CCC1CCCCCC1)Cc1c[nH]c2c(N(C)C(=O)Oc3ccccc3)cccc12	-1
CN(CCC1CCCCCC1)Cc1c[nH]c2c(N(C)C(=O)OC(C(F)(F)F)C(F)(F)F)cccc12	-1
CN(CCC1CCCCCC1)Cc1c[nH]c2c(N(C)C(=O)Sc3nncn3C)cccc12	-1
CN(CCC1CCCCCC1)Cc1c[nH]c2c(N(C)C(=O)n3cnc([N+](=O)[O-])c3)cccc12	1
CN(CCC1CCCCCC1)Cc1c[nH]c2c(N(C)C(=O)Sc3nnnn3C)cccc12	1

Task: For this compound, is IC50 lower than 20 µM? CN(CCC1CCCCCC1)Cc1c[nH]c2c(N(C)C(=O)F)cccc12
Output: 1

Task: Hello, is IC50 of the following compound strictly smaller than 20 µM? CN(CCC1CCCCCC1)Cc1c[nH]c2c(N(C)C(=O)OC(C(F)(F)F)(C(F)(F)F)C(F)(F)F)cccc12
Output: 1

###

protocol.notes: physchem
test.context: pbs
The compounds listed here are annotated with their half-life.

Some compounds with recorded half-life:
CN(CCC1CCCCCC1)Cc1c[nH]c2c(N(C)C(=O)On3ccnc3)cccc12 [compound 14]	~18 days
CN(CCC1CCCCCC1)Cc1c[nH]c2c(N(C)C(=O)n3ccnc3)cccc12 [compound 26]	~14 days

The compound listed as CN(CCC1CCCCCC1)Cc1c[nH]c2c(N(C)C(=O)Sc3nnnn3C)cccc12 [compound 23] has a reported half-life of ~38 days

Value of half-life reported for the compound CN(CCC1CCCCCC1)Cc1c[nH]c2c(N(C)C(=O)F)cccc12 [compound 6] is ~4 days

Lab book: half-life of CN(CCC1CCCCCC1)Cc1c[nH]c2c(N(C)C(=O)Sc3nncn3C)cccc12 [compound 22] noted as ~25 days
